Protocol notes: AUC in non-antibioticc-treated C57Bl/6J mouse at 0.3 mg/kg, iv and measured after 5 mins to 24 hrs by LC/MS-SRM analysis
Format: ADME, organism-based
Design: time upper 24 hr, time lower 0.083 hr, dose 0.3 mg/kg, route intravenous
Details: in vivo
Measured attribute: AUC
Quick note: number first, unit second.

-- ask Reported AUC, molecule `O=C(Nc1cc(C(F)(F)F)c(Oc2ccc(Cl)cc2)c(C(F)(F)F)c1)c1cc(Cl)cc(Cl)c1O` : ____
-- reply 9.23 µM·h

* * *

Protocol notes: AUC in cefoperazone-treated C57Bl/6J mouse at 1 mg/kg, po dosed each day for 5 days by LC/MS-SRM analysis
Type: ADME, organism-based
Details: in vivo
Measured attribute: AUC at 120 h (µM·h)
Record the value in µM·h, omitting the unit from your answer.

-- ask Reported AUC at 120 h, compound `O=C(Nc1cc(C(F)(F)F)c(Oc2ccc(Cl)cc2)c(C(F)(F)F)c1)c1cc(Cl)cc(Cl)c1O` : ____
-- reply 23.2

* * *

Protocol notes: Cmax in non-antibioticc-treated C57Bl/6J mouse at 0.3 mg/kg, iv and measured after 5 mins to 24 hrs by LC/MS-SRM analysis
Type: ADME, organism-based
Parameters: dose 0.3 mg/kg, route intravenous
Details: in vivo
Measured attribute: Cmax (nM)
Record the value in nM, omitting the unit from your answer.

-- ask Reported Cmax, compound `O=C(Nc1cc(C(F)(F)F)c(Oc2ccc(Cl)cc2)c(C(F)(F)F)c1)c1cc(Cl)cc(Cl)c1O` : ____
-- reply 1630
